The reported measurements were obtained from patent US8569487B2.

system: MT4 cells; test: Cytotoxicity, CellTiter-Glo Luminescence Cell Viability assay, MT4; type: cell-based; conditions: non-replicon-containing cell line
Reported Metric: CC50 (µM)
Kindly provide the numeric value in µM only, without the unit symbol.

## Input Please give the measured CC50 for this compound: C[C@@]1(O)[C@H](O)[C@@H](CO)O[C@H]1n1cnc2c(N)ncnc21 [2′CMeA, 2′C-methyl adenosine, reference compound]
## Output 3.5

###

tested on: MH4 cells; test: Cytotoxicity, CellTiter-Glo Luminescence Cell Viability assay, MH4; format: cell-based; conditions: HCV replicon-containing cell line
Reported Metric: CC50 (µM)
Your answer is read as µM, so omit the unit and give the number.

## Input Hello, I am looking for reported CC50 with MH4 cells for C[C@@]1(O)[C@H](O)[C@@H](CO)O[C@H]1n1cnc2c(N)ncnc21 [2′CMeA, 2′C-methyl adenosine, reference compound] . Could you help?
## Output 16

###

system: SL3 cells; assay: Cytotoxicity, CellTiter-Glo Luminescence Cell Viability assay, SL3; type: cell-based; conditions: HCV replicon-containing cell line
Reported Metric: CC50 (µM)
The response must be a number in µM with no trailing unit.

## Input Entry C[C@@]1(O)[C@H](O)[C@@H](CO)O[C@H]1n1cnc2c(N)ncnc21 [2′CMeA, 2′C-methyl adenosine, reference compound] : reported CC50 = ?
## Output 3.9

###

tested on: Huh-7 lucneo cells; assay: Cytotoxicity, CellTiter-Glo Luminescence Cell Viability assay, Huh-7 lucneo; format: cell-based; settings: HCV replicon-containing cell line
Reported Metric: CC50 (µM)
Value expressed in µM; do not type the unit.

## Input Given the entry C[C@@]1(O)[C@H](O)[C@@H](CO)O[C@H]1n1cnc2c(N)ncnc21 [2′CMeA, 2′C-methyl adenosine, reference compound] , report its measured CC50.
## Output 7.2

###

tested on: HepG2 cells; assay: Cytotoxicity, CellTiter-Glo Luminescence Cell Viability assay, HepG2; type: cell-based; details: non-replicon-containing cell line
Reported Metric: CC50 (µM)
Numeric answer only, unit µM assumed.

## Input Field request: CC50 | item: C[C@@]1(O)[C@H](O)[C@@H](CO)O[C@H]1n1cnc2c(N)ncnc21 [2′CMeA, 2′C-methyl adenosine, reference compound]
## Output 24.3
